Molecular target: Neu5Ac(a2-3)[GalNAc(b1-4)]Gal(b1-4)Glc
Assay: glycan array binding signal (z-score within array); higher = stronger binding
Conditions: glycan notation: IUPAC condensed, linker removed
Shown is part of a subset that was picked to be rich in the strongest signals.

>  <binder>
MAL (Maackia amurensis) (protein) SDELSFTINNFMPNQGDLLFQGVATVSPTGVLQLTSEENGQPLEYSVGRVLYTAPVRIWDSTTGAVASFSTSFTFVVKAARGASDGLAFFLAPPDSQIPSGSVSKYLGLFNNSNSDSSNQIVAVEFDTYFGHSYDPWDPNYRHIGIDVNGIESIKTVQWDWINGGVAFATITYLAPNKTLIASLVYPSNQTSFIVAASVDLKEILPEWVRVGFSAATGAPKAVETHDVRSWSFTSTLEANSPADVDN

>  <glycan array binding signal (z-score)>
-0.394

$$$$
